The measurements presented in this section are drawn from paper PMC9116130.

test_target: UniProt:Q9WTU3
Sequence (Q9WTU3 whole entry): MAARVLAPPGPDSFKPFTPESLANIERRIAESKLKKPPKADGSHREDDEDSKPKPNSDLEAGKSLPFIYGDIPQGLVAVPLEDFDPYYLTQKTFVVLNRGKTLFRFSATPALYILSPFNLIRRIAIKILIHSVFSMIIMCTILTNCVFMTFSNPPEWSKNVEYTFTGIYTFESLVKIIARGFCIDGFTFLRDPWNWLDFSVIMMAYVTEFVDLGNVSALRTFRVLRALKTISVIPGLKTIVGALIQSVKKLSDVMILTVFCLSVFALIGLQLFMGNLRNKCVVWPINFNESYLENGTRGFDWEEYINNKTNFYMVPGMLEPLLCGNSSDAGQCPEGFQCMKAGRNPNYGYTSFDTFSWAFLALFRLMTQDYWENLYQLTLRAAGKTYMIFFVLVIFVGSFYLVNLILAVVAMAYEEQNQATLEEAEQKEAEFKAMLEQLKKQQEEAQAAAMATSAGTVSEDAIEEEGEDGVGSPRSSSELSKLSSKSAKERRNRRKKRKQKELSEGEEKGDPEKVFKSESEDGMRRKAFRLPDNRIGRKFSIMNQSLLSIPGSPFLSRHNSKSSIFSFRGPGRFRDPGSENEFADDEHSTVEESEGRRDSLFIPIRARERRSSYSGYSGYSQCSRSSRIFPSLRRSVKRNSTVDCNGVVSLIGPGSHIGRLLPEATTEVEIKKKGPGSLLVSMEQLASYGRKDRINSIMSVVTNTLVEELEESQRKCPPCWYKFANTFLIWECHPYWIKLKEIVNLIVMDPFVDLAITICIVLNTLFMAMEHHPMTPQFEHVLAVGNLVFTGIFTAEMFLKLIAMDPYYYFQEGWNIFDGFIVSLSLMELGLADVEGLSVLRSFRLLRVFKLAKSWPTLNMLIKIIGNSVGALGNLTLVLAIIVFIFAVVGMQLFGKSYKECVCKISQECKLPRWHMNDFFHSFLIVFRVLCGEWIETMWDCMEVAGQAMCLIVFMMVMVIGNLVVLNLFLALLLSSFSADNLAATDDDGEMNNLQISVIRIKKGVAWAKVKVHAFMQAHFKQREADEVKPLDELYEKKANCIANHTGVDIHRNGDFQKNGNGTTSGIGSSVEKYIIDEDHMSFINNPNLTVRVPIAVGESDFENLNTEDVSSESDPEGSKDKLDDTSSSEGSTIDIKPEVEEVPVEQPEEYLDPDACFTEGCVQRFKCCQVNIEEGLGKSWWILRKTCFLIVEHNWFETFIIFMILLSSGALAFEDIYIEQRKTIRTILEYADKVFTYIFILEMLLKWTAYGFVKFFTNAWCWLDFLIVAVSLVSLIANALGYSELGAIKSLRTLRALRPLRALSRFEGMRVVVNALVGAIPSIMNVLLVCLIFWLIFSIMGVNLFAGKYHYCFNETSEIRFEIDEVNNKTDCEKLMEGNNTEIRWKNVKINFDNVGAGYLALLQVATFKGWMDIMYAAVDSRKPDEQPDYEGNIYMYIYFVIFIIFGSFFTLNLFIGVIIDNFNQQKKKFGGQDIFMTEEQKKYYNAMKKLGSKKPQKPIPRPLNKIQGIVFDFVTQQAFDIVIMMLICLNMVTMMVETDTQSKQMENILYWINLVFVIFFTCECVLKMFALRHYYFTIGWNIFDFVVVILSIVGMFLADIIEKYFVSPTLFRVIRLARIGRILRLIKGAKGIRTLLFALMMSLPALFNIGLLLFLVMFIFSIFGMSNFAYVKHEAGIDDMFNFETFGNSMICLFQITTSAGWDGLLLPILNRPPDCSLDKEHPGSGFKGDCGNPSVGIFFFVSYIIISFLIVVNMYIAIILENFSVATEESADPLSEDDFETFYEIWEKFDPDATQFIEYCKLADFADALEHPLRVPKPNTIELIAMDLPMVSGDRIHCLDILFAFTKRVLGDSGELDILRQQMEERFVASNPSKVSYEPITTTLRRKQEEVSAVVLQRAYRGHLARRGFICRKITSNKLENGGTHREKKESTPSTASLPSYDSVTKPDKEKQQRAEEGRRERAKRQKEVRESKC
assay_text: Two-electrode voltage-clamp on Xenopus laevis oocytes expressing NaV1.6
Where a SMILES comes first, the peptide text is derived from it. Bridges are numbered along the chain shown (N, C = ends).
Below: a set of entries, each annotated with reported pIC50.
Value format note: pIC50 is -log10 of concentration (mol/L); just state the number.

A selection of reference data follows.
compound	test_target	pIC50
N=C(N)NCCC[C@@H]1NC(=O)[C@H](CC(N)=O)NC(=O)[C@H](Cc2c[nH]c3ccccc23)NC(=O)[C@H](CCCNC(=N)N)NC(=O)[C@H](CCCCN)NC(=O)[C@H](Cc2c[nH]c3ccccc23)NC(=O)[C@H](CCCNC(=N)N)NC(=O)[C@H](CCCNC(=N)N)NC(=O)[C@@H](N)CSSC[C@@H](C(N)=O)NC1=O [PnCS1[A5K], CRRWKRWNRC ^*] (H-CRRWKRWNRC-NH2; disulfide 1-10)	UniProt:Q9WTU3	6.15
N=C(N)NCCC[C@@H]1NC(=O)[C@H](CC(N)=O)NC(=O)[C@H](Cc2c[nH]c3ccccc23)NC(=O)[C@H](CCCNC(=N)N)NC(=O)[C@H](CCC(=O)O)NC(=O)[C@H](Cc2c[nH]c3ccccc23)NC(=O)[C@H](CCCNC(=N)N)NC(=O)[C@H](CCCNC(=N)N)NC(=O)[C@@H](N)CSSC[C@@H](C(N)=O)NC1=O [PnCS1[A5E], CRRWERWNRC ^*] (H-CRRWERWNRC-NH2; disulfide 1-10)	UniProt:Q9WTU3	5.74

# context switch: different compound, same pIC50
Problem: Field: pIC50 (UniProt:Q9WTU3). Entry: C[C@@H]1NC(=O)[C@H](CC(N)=O)NC(=O)[C@H](Cc2c[nH]c3ccccc23)NC(=O)[C@H](CCCNC(=N)N)NC(=O)[C@H](C)NC(=O)[C@H](Cc2c[nH]c3ccccc23)NC(=O)[C@H](CCCNC(=N)N)NC(=O)[C@H](CCCNC(=N)N)NC(=O)[C@@H](N)CSSC[C@@H](C(N)=O)NC1=O [PnCS1[R9A], CRRWARWNAC ^*] (H-CRRWARWNAC-NH2; disulfide 1-10)
Solution: 6.05
